Tested on: MCF7 breast
Test: NCI tumour cell line growth inhibition, 48 h; in the data active means GI50 below about 0.43 µM; inactive means the rest
Classes used: active, inactive

compound: Clc1c(Cl)[n+](Cc2ccc3ccccc3c2)cn1Cc1ccc2ccccc2c1
class-label: inactive
--
compound: COc1cc2c(cc1OC(C)C)[C@H](c1ccc(Cl)cc1)N(c1ccc(N(C)CC3CCC(N4CCN(C)C(=O)C4)CC3)cc1)C(=O)C2 (some centres undefined)
class-label: active
--
compound: O=c1c2c(nc3n1CCS3)[nH]c1cc([N+](=O)[O-])ccc12
class-label: inactive
--
compound: C=CN(C(=O)N1CCN(c2cc3c(cc2F)c(=O)c(C(=O)O)cn3C2CC2)CC1)c1nc(-c2ccc(OC)cc2)cs1
class-label: inactive
--
compound: Oc1c(Cl)cc(Cl)c(Cl)c1CNCCNCc1c(O)c(Cl)cc(Cl)c1Cl
class-label: inactive
--
compound: CCOC(=O)C1=CCCC[C@H]1S(=O)(=O)Nc1ccc(F)cc1Cl
class-label: inactive
--
compound: CCCCCCCCCCCCCCCC1=NCC[N+]1(CCO)CCO
class-label: inactive
--
compound: Cc1nn(CNc2ccccc2C(F)(F)F)c(=S)n1/N=C/c1cccc2cccnc12
class-label: inactive
--
compound: COc1ccc2c(c1)C(=O)c1c-2n(CCCN(C)C)c(=O)c2ccccc12
class-label: active
